Response field label: string, one of fulfilled (melting point strictly below 100 °C) or not fulfilled.

IN: Please indicate whether the reported melting point of "O=C(c1ccccc1)C(Cl)Cl" is strictly below 100 °C.
OUT: fulfilled

IN: Please indicate whether the reported melting point of "C=C(C)C(=O)O" is strictly below 100 °C.
OUT: fulfilled

IN: Please indicate whether the reported melting point of "OC[C@H]1O[C@H](O[C@H]2O[C@H](CO)[C@@H](O)[C@H](O)[C@H]2O)[C@H](O)[C@@H](O)[C@@H]1O" is strictly below 100 °C.
OUT: not fulfilled

IN: Please indicate whether the reported melting point of "ClCC1CC1" is strictly below 100 °C.
OUT: fulfilled

IN: Please indicate whether the reported melting point of "NCCCN1CCOCC1" is strictly below 100 °C.
OUT: fulfilled

IN: Please indicate whether the reported melting point of "CCCc1ccc(C(=O)O)cc1" is strictly below 100 °C.
OUT: not fulfilled

IN: Please indicate whether the reported melting point of "O=C(Cl)c1ccc(Cl)cc1Cl" is strictly below 100 °C.
OUT: fulfilled

IN: Please indicate whether the reported melting point of "CCCCCCCCCCCCCCCCCCCCCC(=O)OCC" is strictly below 100 °C.
OUT: fulfilled

IN: Please indicate whether the reported melting point of "O=C(O)c1ccc2c(c1)C(=O)OC2=O" is strictly below 100 °C.
OUT: not fulfilled

IN: Please indicate whether the reported melting point of "CC(=O)c1cc(C)ccc1C" is strictly below 100 °C.
OUT: fulfilled

IN: Please indicate whether the reported melting point of "O=C(O)C1=CCCc2ccccc21" is strictly below 100 °C.
OUT: not fulfilled

IN: Please indicate whether the reported melting point of "CC(=O)Nc1ccc(F)cc1" is strictly below 100 °C.
OUT: not fulfilled

----------
Kindly supply the reported melting point values for the records listed here.

// "Clc1ccc2ccccc2c1" : melting point value = 61 °C

// "Clc1cc2c(c(Cl)c1Cl)Oc1cc(Cl)c(Cl)c(Cl)c1O2" : melting point value = 285 °C

// "CC(C)(C)OO" : melting point value = -8 °C

// "Nc1ccc2[nH]ncc2c1" : melting point value = 176 °C

// "O=C(NC(=O)c1ccccc1)c1ccccc1" : melting point value = 152 °C

// "FC(F)(F)C(Cl)=CCl" : melting point value = -109 °C

// "Cc1ccc2ccccc2c1[N+](=O)[O-]" : melting point value = 81.5 °C

// "O=C[C@H](O)[C@H](O)[C@H](O)CO" : melting point value = 98.5 °C

// "COc1cc(C(=O)O)ccc1O" : melting point value = 212 °C

// "O=[N+]([O-])c1cc(I)c(O)c(I)c1" : melting point value = 157 °C

// "C[C@H]1C(=O)CC[C@@H]2[C@]1(C)CC[C@H]1[C@@]2(C)CC[C@@]2(C)[C@@H]3CC(C)(C)CC[C@]3(C)CC[C@]12C" : melting point value = 263 °C

// "Cc1ccc2ccccc2n1" : melting point value = -1.5 °C

// "Cc1cccc2c1ccc1ccccc12" : melting point value = 123 °C

// "O=C1c2ccccc2C(=O)C1c1ccc(Cl)cc1" : melting point value = 146 °C

// "Cc1ccsc1C" : melting point value = -49 °C

// "CCCCF" : melting point value = -134 °C

// "Nc1cccc2cccnc12" : melting point value = 70 °C

// N#CC(Br)c1ccccc1 (stereo not given) : melting point value = 29 °C

// "CCCCCc1ccc(C)cc1O" : melting point value = 24 °C

// "CCN(CC)C(=O)c1ccc(O)c(OC)c1" : melting point value = 95 °C

// "NS(=O)(=O)c1ccc(SCCCCO)c(F)c1" : melting point value = 104 °C

// "C=CCCCCCCCCCC" : melting point value = -35.2 °C

// CC(C)(C)C(O)(CCc1ccc(Cl)cc1)Cn1cncn1 (stereo not given) : melting point value = 102 °C

// CNC(=O)Oc1ccccc1OC(CCl)OC (stereo not given) : melting point value = 80 °C

// "C#CCCCCCC#C" : melting point value = -27.3 °C

----------
Kindly supply the reported boiling point values for the records listed here.
Write it as a number; the unit °C goes unstated.

// "CC#CCO" : boiling point value = 148

// "Nc1ccc(N)c(N)c1" : boiling point value = 340

// "O=C(c1ccccc1)c1ccc(Br)cc1" : boiling point value = 350

// "O=C(O)CC1CCCCC1" : boiling point value = 245

// CC1CCCC(C(C)C)C1 (configuration not stated) : boiling point value = 166

// "Cc1cc(C)c(O)cc1C" : boiling point value = 232

// "CCCCCCc1ccc(N)cc1" : boiling point value = 282

----------
Response field label: string, one of MET (melting point strictly below -20 °C) or NOT MET.

IN: Please indicate whether the reported melting point of CC1COC(=O)O1 (centres undefined) is strictly below -20 °C.
OUT: MET

IN: Please indicate whether the reported melting point of CC(CC1CCCCC1)C1CCCCC1 (centres undefined) is strictly below -20 °C.
OUT: MET

IN: Please indicate whether the reported melting point of "CCCCCC(=O)CC(C)=O" is strictly below -20 °C.
OUT: NOT MET

IN: Please indicate whether the reported melting point of "CC(C)(C)N" is strictly below -20 °C.
OUT: MET

IN: Please indicate whether the reported melting point of "CCCCCCCCCCCCCCCCCCOS(=O)(=O)[O-].[Na+]" is strictly below -20 °C.
OUT: NOT MET

IN: Please indicate whether the reported melting point of "CC(C)(C)c1ccc2ccccc2c1" is strictly below -20 °C.
OUT: NOT MET

IN: Please indicate whether the reported melting point of "O=C(O)COCC(=O)O" is strictly below -20 °C.
OUT: NOT MET

IN: Please indicate whether the reported melting point of "Nc1ccccc1C(=O)O" is strictly below -20 °C.
OUT: NOT MET

IN: Please indicate whether the reported melting point of "Cc1cc(O)c2c(c1)C(=O)c1cccc(O)c1C2=O" is strictly below -20 °C.
OUT: NOT MET

----------
Kindly supply the reported log10 BCF values for the records listed here.
settings: fish
A bare number is all that is needed in reply.

// "Clc1c(Cl)c(Cl)c(-c2c(Cl)c(Cl)c(Cl)c(Cl)c2Cl)c(Cl)c1Cl" : log10 BCF value = 4.24

// "COCN(COC)c1nc(N(COC)COC)nc(N(COC)COC)n1" : log10 BCF value = 0.54

// "Clc1ccc(Cl)cc1" : log10 BCF value = 2.62

// "CCOP(=S)(OCC)SCCSCC" : log10 BCF value = 2.34

----------
Parameter threshold = 100 °C. Response is 1 (yes) when boiling point meets or exceeds it, else 0 (no).

IN: Check this compound for boiling point at or above 100 °C: "CC(C)(F)F"
OUT: 0 (no)

IN: Check this compound for boiling point at or above 100 °C: "Cc1ccc2ncccc2c1"
OUT: 1 (yes)

IN: Check this compound for boiling point at or above 100 °C: "CCCc1cccc2ccccc12"
OUT: 1 (yes)

IN: Check this compound for boiling point at or above 100 °C: "CCCC(C1CCCCC1)C1CCCCC1"
OUT: 1 (yes)

IN: Check this compound for boiling point at or above 100 °C: CC1=CCC(C(C)(C)O)C[C@@H]1O (stereo partly drawn)
OUT: 1 (yes)

IN: Check this compound for boiling point at or above 100 °C: "CCCSCC"
OUT: 1 (yes)

IN: Check this compound for boiling point at or above 100 °C: "CC(C)C[N+](=O)[O-]"
OUT: 1 (yes)

IN: Check this compound for boiling point at or above 100 °C: "CC(C)CCI"
OUT: 1 (yes)

IN: Check this compound for boiling point at or above 100 °C: "CCOC(CCl)OCC"
OUT: 1 (yes)

IN: Check this compound for boiling point at or above 100 °C: "CCN(Cc1ccccc1)c1ccccc1"
OUT: 1 (yes)

IN: Check this compound for boiling point at or above 100 °C: "CCCC=NO"
OUT: 1 (yes)

IN: Check this compound for boiling point at or above 100 °C: "CC(=O)OC(C)C"
OUT: 0 (no)

IN: Check this compound for boiling point at or above 100 °C: "CCCCCCCCS"
OUT: 1 (yes)

IN: Check this compound for boiling point at or above 100 °C: "CN(C)N"
OUT: 0 (no)

IN: Check this compound for boiling point at or above 100 °C: "C[Si](Cl)(Cl)Cl"
OUT: 0 (no)

IN: Check this compound for boiling point at or above 100 °C: CCC(O)c1ccccc1 (stereo not drawn)
OUT: 1 (yes)

IN: Check this compound for boiling point at or above 100 °C: "CCCC(N)CCC"
OUT: 1 (yes)

IN: Check this compound for boiling point at or above 100 °C: "CC(C)CCBr"
OUT: 1 (yes)

IN: Check this compound for boiling point at or above 100 °C: "CCC(Br)=CBr"
OUT: 1 (yes)

IN: Check this compound for boiling point at or above 100 °C: "CNc1ccccc1C(=O)OC"
OUT: 1 (yes)

IN: Check this compound for boiling point at or above 100 °C: "FC(F)(Br)Br"
OUT: 0 (no)

IN: Check this compound for boiling point at or above 100 °C: "Cc1ccc(C)[nH]1"
OUT: 1 (yes)

IN: Check this compound for boiling point at or above 100 °C: "c1ccc(O[Si](Oc2ccccc2)(Oc2ccccc2)Oc2ccccc2)cc1"
OUT: 1 (yes)

IN: Check this compound for boiling point at or above 100 °C: CC1CC(C)(C)CC1=O (stereo not drawn)
OUT: 1 (yes)

IN: Check this compound for boiling point at or above 100 °C: "O=C(OCC(F)(F)F)C(F)(F)F"
OUT: 0 (no)

IN: Check this compound for boiling point at or above 100 °C: "N#CCI"
OUT: 1 (yes)

IN: Check this compound for boiling point at or above 100 °C: "C[B]C"
OUT: 0 (no)

IN: Check this compound for boiling point at or above 100 °C: CCCCC(C)Br (stereo not drawn)
OUT: 1 (yes)

IN: Check this compound for boiling point at or above 100 °C: "CCCCO[N+](=O)[O-]"
OUT: 1 (yes)

IN: Check this compound for boiling point at or above 100 °C: "CC=Cc1cccc(OC)c1O"
OUT: 1 (yes)

IN: Check this compound for boiling point at or above 100 °C: "CCCCCCCCCCCO"
OUT: 1 (yes)

IN: Check this compound for boiling point at or above 100 °C: "CC(CO)(CO)CO"
OUT: 1 (yes)

IN: Check this compound for boiling point at or above 100 °C: "CCn1ccnc1"
OUT: 1 (yes)
